Experiment: Cmax in mouse at 5 ug/kg
Type: ADME, organism-based
Parameters: dose 5 ug/kg
Details: in vivo, 0.005 mg/kg
parameter: Cmax

>  <chemical.structure>
C=C1/C(=C\C=C2/CCC[C@]3(C)[C@@H]([C@H](C)CCCC(C)(C)O)CC[C@@H]23)C[C@@H](O)C[C@@H]1O

>  <parameter>
Cmax

>  <result>
> 10 ng/mL

$$$$

###

Experiment: AUC in mouse at 5 ug/kg
Type: ADME, organism-based
Conditions: plasma, 0.005 mg/kg

>  <compound>
C=C1/C(=C\C=C2/CCC[C@]3(C)[C@@H]([C@H](C)CCCC(C)(C)O)CC[C@@H]23)C[C@@H](O)C[C@@H]1O [CALCITRIOL]

>  <AUC>
> 40 ng·h/mL

$$$$
